# collection of ST IC50 (in vitro IN strand transfer assay) values tested on HIV-1 integrase (IN) (HIV-1)
Answers are plain numbers, in µM.

- substance: "peptide 8a (AIHFRIG)"
  target: "HIV-1 integrase (IN) (HIV-1)"
  endpointUnit: "µM"
  resultValue: 22.7
- substance: "peptide 7c (Ac-FAHFRIG-amide)"
  target: "HIV-1 integrase (IN) (HIV-1)"
  endpointUnit: "µM"
  resultValue: 127

Quick one: give me ST IC50 (in vitro IN strand transfer assay) for each item below, same order please.
1. peptide 9a (FIHFRBG)
2. peptide 11a (FIHBRIG)
3. peptide 14a (BIHFRIG)
4. peptide 5a (FIHARIG)
5. peptide 6a (FIAFRIG)

RESULT:
[4.3, 4.2, 2.1, 46.6, 6.7]

Hi, could you look up ST IC50 (in vitro IN strand transfer assay) for each item in my list?
1. peptide 7a (FAHFRIG)
2. peptide 6c (Ac-FIAFRIG-amide)
3. peptide 13a (FBHFRIG)
4. peptide 15 (Biotin-linker-BIHFRIG)
5. peptide 3a (FIHFRAG)
6. peptide 6b (FIAFRIG-amide)
7. peptide 1a (FIHFRIG)

RESULT:
73.5
3.5
20
2.3
22.4
35
1.3

----------
For each entry below, report its 3'-P IC50 (in vitro IN 3'-processing assay) value.
Target: HIV-1 integrase (IN) (HIV-1)
Give bare numbers, in µM.

- substance: "peptide 9a (FIHFRBG)"
  resultValue: 20
- substance: "peptide 6b (FIAFRIG-amide)"
  resultValue: 95.4
- substance: "peptide 11a (FIHBRIG)"
  resultValue: 34

Please go through the list and note 3'-P IC50 (in vitro IN 3'-processing assay) for each substance.
1. peptide 2c (Ac-FIHFRIA-amide)
2. peptide 3c (Ac-FIHFRAG-amide)
3. peptide 6a (FIAFRIG)

RESULT:
[74.5, 208, 17.4]

// batch mode: one 3'-P IC50 (in vitro IN 3'-processing assay) value per listed entry
1. peptide 14a (BIHFRIG)
2. peptide 3a (FIHFRAG)

RESULT:
7.2
66.5

----------
For each record, write down the corresponding 3'-P IC50 (in vitro IN 3'-processing assay).
Molecular target: HIV-1 integrase (IN) (HIV-1)
Answers are plain numbers, in µM.

Look over these answered cases.
- substance: "peptide 12a (FIBFRIG)"
  resultValue: 6.5
- substance: "peptide 1a (FIHFRIG)"
  resultValue: 17.6
- substance: "peptide 13a (FBHFRIG)"
  resultValue: 37
- substance: "peptide 15 (Biotin-linker-BIHFRIG)"
  resultValue: 32
- substance: "peptide 8a (AIHFRIG)"
  resultValue: 86.3

QUERY: Reported 3'-P IC50 (in vitro IN 3'-processing assay), substance peptide 6c (Ac-FIAFRIG-amide) : ____
RESULT: 94

----------
ST IC50 (in vitro IN strand transfer assay), HIV-1 integrase (IN) (HIV-1): measured values

Use the examples below as a reference point.
- substance: "peptide 8c (Ac-AIHFRIG-amide)"
  resultValue: "46 µM"
- substance: "peptide 3c (Ac-FIHFRAG-amide)"
  resultValue: "28 µM"
- substance: "peptide 2a (FIHFRIA)"
  resultValue: "34.7 µM"
- substance: "peptide 2b (FIHFRIA-amide)"
  resultValue: "60.6 µM"
- substance: "peptide 5c (Ac-FIHARIG-amide)"
  resultValue: "117 µM"

Answer for every listed entry: what is its ST IC50 (in vitro IN strand transfer assay)? The entries follow.
1. peptide 7b (FAHFRIG-amide)
2. peptide 2c (Ac-FIHFRIA-amide)

RESULT:
1. > 111 µM
2. 30.4 µM

----------
For each record, write down the corresponding ST IC50 (in vitro IN strand transfer assay).
Target: HIV-1 integrase (IN) (HIV-1)

Reference set, count: 3
- substance: "peptide 5b (FIHARIG-amide)"
  resultValue: "> 111 µM"
- substance: "peptide 4b (FIHFAIG-amide)"
  resultValue: "> 111 µM"
- substance: "peptide 8b (AIHFRIG-amide)"
  resultValue: "> 111 µM"

Field: ST IC50 (in vitro IN strand transfer assay). Fill in for each record below.
1. peptide 3b (FIHFRAG-amide)
2. peptide 4a (FIHFAIG)
3. peptide 10a (FIHFBIG)
4. peptide 4c (Ac-FIHFAIG-amide)
5. peptide 12a (FIBFRIG)

RESULT:
1. > 111 µM
2. > 111 µM
3. 48 µM
4. 81 µM
5. 2.2 µM

----------
3'-P IC50 (in vitro IN 3'-processing assay), HIV-1 integrase (IN) (HIV-1), per-entry values.

- substance: "peptide 5b (FIHARIG-amide)"
  target: "HIV-1 integrase (IN) (HIV-1)"
  resultValue: "> 111 µM"
- substance: "peptide 10a (FIHFBIG)"
  target: "HIV-1 integrase (IN) (HIV-1)"
  resultValue: "> 333 µM"

Dear reader, for each entry below, please note its 3'-P IC50 (in vitro IN 3'-processing assay).
1. peptide 3b (FIHFRAG-amide)
2. peptide 2a (FIHFRIA)
3. peptide 8c (Ac-AIHFRIG-amide)
4. peptide 7b (FAHFRIG-amide)

RESULT:
["> 111 µM", "> 111 µM", "> 333 µM", "> 111 µM"]

----------
Molecular target: HIV-1 integrase (IN) (HIV-1)
For each of the substances below, state its 3'-P IC50 (in vitro IN 3'-processing assay).

- substance: "peptide 2b (FIHFRIA-amide)"
  resultValue: "> 111 µM"

Each substance below has a recorded value; state its 3'-P IC50 (in vitro IN 3'-processing assay).
1. peptide 4c (Ac-FIHFAIG-amide)
2. peptide 5c (Ac-FIHARIG-amide)
3. peptide 8b (AIHFRIG-amide)
4. peptide 5a (FIHARIG)

RESULT:
> 333 µM
> 333 µM
> 111 µM
> 111 µM

----------
Dear all, this message contains 3'-P IC50 (in vitro IN 3'-processing assay) results, target or system HIV-1 integrase (IN) (HIV-1).

- substance: "peptide 7a (FAHFRIG)"
  resultValue: "> 111 µM"
- substance: "peptide 4a (FIHFAIG)"
  resultValue: "> 111 µM"
- substance: "peptide 4b (FIHFAIG-amide)"
  resultValue: "> 111 µM"

Turning now to a further substance:
QUERY: Name the reported 3'-P IC50 (in vitro IN 3'-processing assay) value associated with the substance peptide 7c (Ac-FAHFRIG-amide)
RESULT: > 333 µM

From: paper PMC6222646
